We begin with a simple list: items and their reported inhibition at 10 µM.
SYSTEM TESTED: 17β-HSD2 (Homo sapiens)
Construct: was measured in intact cell monolayers of T47D and MDA-MB-231 breast cancer cells respectively; endogenous in cells; host or cells: MDA-MB-231 human breast cancer cells
METHOD DESCRIPTION: 17β-HSD Type II activity in MDA-MB-231 cells (E2→E1)
Format: cell-based
CONDITION SET: 10 μM; MDA-MB-231 cells, E2→E1; read-out: % inhibition of 17β-HSD2 @ 10 μM
Kindly provide the numeric value in % only, without the unit symbol.

Below, 5 molecules whose answers are already recorded.
Cn1cccc1CNC(=O)C1CC2C3CCc4cc(O)ccc4C3CC[C@]2(C)[C@H]1O (stereo partly drawn) [compound 802]
-7
CCOCC1CC2C3CCc4cc(O)ccc4C3CC[C@]2(C)C1=O (stereo partly drawn) [compound 664]
19
COc1cc(/C=C2\CC3C4CCc5cc(O)ccc5C4CC[C@]3(C)[C@H]2O)cc(OC)c1OC (stereo partly drawn) [compound 329]
3
C[C@]12CCC3c4ccc(O)cc4CCC3C1CC(CC(=O)NCc1ccco1)[C@@H]2O (stereo partly drawn) [compound 667]
14
C[C@]12CCC3c4ccc(OS(N)(=O)=O)cc4CCC3C1C/C(=C\c1ccncc1)C2=O (stereo partly drawn) [compound 452]
11

IN: Using the record for CN1CCN(C(=O)C2CC3C4CCc5cc(O)ccc5C4CC[C@]3(C)[C@H]2O)CC1 (stereo partly drawn) [compound 799] , report its inhibition at 10 µM.
OUT: -16

IN: What do you have for COC(=O)C1CC2C3CCc4cc(O)ccc4C3CC[C@]2(C)C1=O (stereo partly drawn) [compound 568] ?
OUT: 9

IN: Query C[C@]12CCC3c4ccc(O)cc4CCC3C1C/C(=C\c1cccs1)C2=O (stereo partly drawn) [compound 475] next
OUT: 14

IN: What do we get for COC(=O)C1(CN2C(=O)c3ccccc3C2=O)CC2C3CCc4cc(O)ccc4C3CC[C@]2(C)C1=O (stereo partly drawn) [compound 780] ?
OUT: 17

IN: Now consider C[C@]12CCC3c4ccc(O)cc4C(=O)CC3C1C/C(=C/O)C2=O (stereo partly drawn) [compound 784] and answer again.
OUT: -7

IN: Note, next up: C[C@]12CCC3c4ccc(OS(N)(=O)=O)cc4CCC3C1C/C(=C\c1ccccc1)[C@@H]2O (stereo partly drawn) [compound 315]
OUT: 1

IN: What do you get for CCC(O)C1CC2C3CCc4cc(O)ccc4C3CC[C@]2(C)C1=O (stereo partly drawn) [compound 665] ?
OUT: -18

IN: Again, but for C[C@]12CCC3c4ccc(O)cc4CCC3C1C/C(=C/O)C2=O (stereo partly drawn) [compound 486]
OUT: 15

IN: Next: COC(=O)Cn1ncc2c1[C@@]1(C)CCC3c4ccc(O)cc4CCC3C1C2 (stereo partly drawn) [compound 807]
OUT: 30
